tested on: human Factor 11 mRNA; experiment: Dose-dependent inhibition of human Factor 11 in HepB3 cells, electroporation (Example 7); type: cell-based; details: 41.15 nM, ~16 hours
measureName: percent inhibition of human Factor 11 mRNA relative to untreated control cells (%)
Enter your answer as a number in %; do not include the unit.

Below, each entry is followed by its recorded percent inhibition of human Factor 11 mRNA relative to untreated control cells result.
{"columns": ["substance", "value"],
 "data": [
  ["416838 (antisense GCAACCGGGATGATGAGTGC; 5-10-5 gapmer, further chemistry not given here) [compound 416838]", 12],
  ["416850 (antisense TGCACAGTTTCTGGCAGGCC; 5-10-5 gapmer, further chemistry not given here) [compound 416850]", 26],
  ["416892 (antisense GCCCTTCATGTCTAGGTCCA; 3-14-3 chimeric gapmer, further chemistry not given here) [compound 416892]", 9],
  ["416925 (antisense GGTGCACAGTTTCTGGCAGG; 3-14-3 gapmer chemistry, further chemistry not given here) [compound 416925]", 27]
]}

Now for the substance whose percent inhibition of human Factor 11 mRNA relative to untreated control cells we want.
Q: What measured percent inhibition of human Factor 11 mRNA relative to untreated control cells goes with 416826 (antisense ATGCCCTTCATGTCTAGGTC; 5-10-5 gapmer, further chemistry not given here) [compound 416826] ?
A: 0
